readout: melting point

[[record]]
smiles_structure = "C[C@H](NS(=O)(=O)c1ccc(-c2c(C#N)c3cccnc3n2C2CCC2)nc1)C(F)(F)F"
value = "183 to 185 °C"

[[record]]
smiles_structure = "CCCn1c(-c2ccc(S(=O)(=O)N[C@@H](C)C(F)(F)F)cn2)c(C#N)c2cc(C)cnc21"
value = "145 to 149 °C"

[[record]]
smiles_structure = "CCOc1cnc2c(c1)c(C#N)c(-c1ccc(S(=O)(=O)N[C@H](C)C(F)(F)F)cn1)n2C1CCC1"
value = "180 to 181 °C"

[[record]]
smiles_structure = "Cc1cnc2c(C#N)c(-c3ccc(S(=O)(=O)N[C@@H](C)C(F)(F)F)cn3)n(-c3ccccc3)c2c1"
value = "245 to 247 °C"

[[record]]
smiles_structure = "N#Cc1c(-c2ccc(S(=O)(=O)NC(CF)CF)cn2)n(C2CCCC2)c2cc(Cl)ncc12"
value = "231 to 233 °C"

[[record]]
smiles_structure = "CC1(NS(=O)(=O)c2cnc(-c3c(C#N)c4cc(C5CC5)cnc4n3C3CCC3)nc2)CC1"
value = "161 to 169 °C"

[[record]]
smiles_structure = "C[C@H](NS(=O)(=O)c1ccc(-c2c(C#N)c3cc(S(C)(=O)=O)cnc3n2C2CCCC2)nc1)C(F)(F)F"
value = "260 to 261 °C"

[[record]]
smiles_structure = "CC(C)NS(=O)(=O)c1cnc(-c2c(C#N)c3cc(C4CC4)cnc3n2C2CCC2)nc1"
value = "187 to 195 °C"

